target: STAT3-SH2 domain (Homo sapiens); construct: First, 75 nM of each SH2-containing protein was incubated with the test compound for 15 min; assay: AlphaScreen-based assay, STAT3-SH2 domain / pTyr peptide binding; conditions: read-out: STAT3 IC50 (μM) ± SD
MEASUREMENT KIND: IC50 (µM)

Worked cases, IC50 given:
- CCCC(CCC)C(=O)OCCSS(C)(=O)=O [Compound 1]: 0.7
- CCCC(CCC)C(=O)NCCSS(C)(=O)=O [Compound 2]: 1.4

a. Cc1ccc(S(=O)(=O)SCC(=O)Nc2ccc(C(=O)O)c(O)c2)cc1 [Compound 6]
b. CC(=O)Oc1ccccc1C(=O)OCCSS(C)(=O)=O [Compound 4]
Request: Select the item whose IC50 value is smaller, choosing between a and b . In your reply, give the label of the chosen option.
Result: b
(b: 1.4 µM, a: 4.9 µM)

* * *

The reader will find reported IC50 values listed item by item below.
target: STAT3-SH2 domain (Homo sapiens, UniProt P40763); construct: First, 75 nM of each SH2-containing protein was incubated with the test compound for 15 min; experiment: AlphaScreen-based assay, STAT3-SH2 domain / pTyr peptide binding; conditions: read-out: STAT3 IC50 (μM) ± SD
Sequence (P40763 whole entry, the tested form may be a part): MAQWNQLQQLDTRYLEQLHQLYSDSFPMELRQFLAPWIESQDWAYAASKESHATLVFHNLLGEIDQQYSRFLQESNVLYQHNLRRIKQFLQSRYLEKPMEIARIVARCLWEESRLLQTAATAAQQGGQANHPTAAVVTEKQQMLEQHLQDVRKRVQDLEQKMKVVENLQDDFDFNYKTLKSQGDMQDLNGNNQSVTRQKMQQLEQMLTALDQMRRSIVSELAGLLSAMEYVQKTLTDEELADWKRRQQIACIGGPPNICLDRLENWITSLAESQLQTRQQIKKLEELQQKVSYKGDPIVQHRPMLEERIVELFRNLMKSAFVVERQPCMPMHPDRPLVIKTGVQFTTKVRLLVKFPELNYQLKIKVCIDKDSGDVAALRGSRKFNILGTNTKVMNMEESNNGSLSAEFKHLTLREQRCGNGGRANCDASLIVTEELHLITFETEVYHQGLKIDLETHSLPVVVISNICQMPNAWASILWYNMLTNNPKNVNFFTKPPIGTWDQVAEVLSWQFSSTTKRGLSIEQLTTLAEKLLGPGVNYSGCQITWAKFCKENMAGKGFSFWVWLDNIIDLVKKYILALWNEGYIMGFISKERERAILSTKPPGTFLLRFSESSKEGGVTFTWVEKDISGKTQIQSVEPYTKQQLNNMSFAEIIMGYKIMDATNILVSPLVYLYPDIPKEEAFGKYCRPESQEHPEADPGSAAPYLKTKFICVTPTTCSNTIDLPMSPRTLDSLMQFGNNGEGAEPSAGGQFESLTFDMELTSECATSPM

- CS(=O)(=O)SCCN [Compound 10, S-(2-aminoethyl) methanesulfonothioate, reference compound]: > 3 µM
- CC1=C(CC(=O)O)c2cc(F)ccc2/C1=C\c1ccc([S+](C)[O-])cc1 (stereo not drawn) [Sulindac, sulindac, reference compound]: > 30 µM

Request: Name the recorded IC50 for CC(=O)Oc1ccccc1C(=O)O [ASA, acetyl salicylic acid, reference compound] .
Result: > 30 µM
